- experimental protocol: Metabolic stability in cryopreserved human hepatocytes
- Assay type: in vitro ADME
- stated conditions: human, cryopreserved human hepatocytes (pooled, suspension), Table S1; PROTACs, cryopreserved human hepatocytes; read-out: t1/2
measured property: half-life at 1 µM (h)

compound	half-life at 1 µM (h)
Cc1ncsc1-c1ccc([C@H](C)NC(=O)[C@@H]2C[C@@H](O)CN2C(=O)[C@@H](NC(=O)COCCCOCCNC(=O)C[C@@H]2N=C(c3ccc(Cl)cc3)c3c(sc(C)c3C)-n3c(C)nnc32)C(C)(C)C)cc1 [Compound 10, ARV-771, reference compound]	2.52

(1) O=C1CCC(N2C(=O)c3cccc(NCCCCCCNC(=O)c4ccc5c(c4)nc(Nc4cccc(Cl)c4)c4ccncc45)c3C2=O)C(=O)N1 (stereo not shown)
(2) Cc1ncsc1-c1ccc([C@H](C)NC(=O)[C@@H]2C[C@@H](O)CN2C(=O)[C@@H](NC(=O)COCCOCCNC(=O)C[C@@H]2N=C(c3ccc(Cl)cc3)c3c(sc(C)c3C)-n3c(C)nnc32)C(C)(C)C)cc1
Returns the identifier with the smallest measured half-life at 1 µM among 1 and 2 . Reply briefly: the label of your chosen item.
1
